Target: Stromelysin-1 (Homo sapiens, UniProt P08254)
Sequence (P08254 whole entry): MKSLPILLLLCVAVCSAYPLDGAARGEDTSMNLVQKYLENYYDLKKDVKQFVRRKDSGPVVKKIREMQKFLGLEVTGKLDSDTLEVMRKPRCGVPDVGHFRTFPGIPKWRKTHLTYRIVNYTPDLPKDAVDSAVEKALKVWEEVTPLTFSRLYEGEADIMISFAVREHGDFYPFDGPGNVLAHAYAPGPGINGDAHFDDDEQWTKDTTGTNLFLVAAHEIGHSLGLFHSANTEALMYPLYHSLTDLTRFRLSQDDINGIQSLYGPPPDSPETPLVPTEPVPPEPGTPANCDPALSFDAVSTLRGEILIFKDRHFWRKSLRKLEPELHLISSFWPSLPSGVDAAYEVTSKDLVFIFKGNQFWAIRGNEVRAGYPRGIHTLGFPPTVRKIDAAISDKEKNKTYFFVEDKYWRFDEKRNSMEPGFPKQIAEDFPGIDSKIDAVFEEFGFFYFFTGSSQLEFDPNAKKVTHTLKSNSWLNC
Experiment: Binding to stromelysin (MMP-3) in place of acetohydroxamic acid.
Design: species or system Rattus norvegicus
pKd: −log10 of the molar value.
reported metric: pKd

a. SCc1cccs1
b. O=C(O)CCS [MERCAPTOPROPIONIC ACID]
Lower pKd: a or b ? Output the label that corresponds to your choice. b
(b: 2.52, a: 3.82)

====

Biological target: Stromelysin-1 (Homo sapiens)
Test: Binding to stromelysin (MMP-3) in the presence of acetohydroxamic acid
Set-up: species or system Rattus norvegicus
reported metric: Kd

What measured Kd goes with `N#Cc1ccc(-c2ccc(O)cc2)cc1` ? < 50 µM

Origin of measurements: ChEMBL document CHEMBL1135830
